- Tested on: Crude diglycosidase
- Measurement description: Examination of pH in the conversion into isoflavone aglycons by diglycosidase using soybean materials
- Assay type: biochemical, Penicillium multicolor IAM7153
- Setup conditions: pH8.5, heat treatment of enzyme no, reaction time 1 h, 55° C.
Quick reference: Decomposition efficiency of glycitin family in roasted soy flour of the listed items.
API note: the answer field is a bare number with no unit suffix.

Recorded results for 2 compounds are shown here.
Smiles str	Quantitative result
COc1cc2c(=O)c(-c3ccc(O)cc3)coc2cc1O[C@@H]1O[C@H](CO)[C@@H](O)[C@H](O)[C@H]1O	39.4
COc1cc2c(=O)c(-c3ccc(O)cc3)coc2cc1O	28.2

Okay, next one:
Notebook: COc1cc2c(=O)c(-c3ccc(O)cc3)coc2cc1O[C@@H]1O[C@H](COC(C)=O)[C@@H](O)[C@H](O)[C@H]1O , Decomposition efficiency of glycitin family in roasted soy flour read as 32.4

---

- System: Crude diglycosidase
- Measurement description: Examination of temperature in the conversion into isoflavone aglycons by diglycosidase using soybean materials
- Assay type: biochemical, Penicillium multicolor IAM7153
- Parameters: concentration or dose not given beside the values
- Setup conditions: 80 °C; heat treatment of enzyme: no; 0 h
Each entry below carries its reported Decomposition efficiency of daidzin family in soymilk.
The response must be a number in % with no trailing unit.

Consider the reported Decomposition efficiency of daidzin family in soymilk for these compounds:
Smiles str	Endpoint unit	Quantitative result
O=c1c(-c2ccc(O)cc2)coc2cc(O[C@@H]3O[C@H](CO)[C@@H](O)[C@H](O)[C@H]3O)ccc12	%	33.9
O=C(O)CC(=O)OC[C@H]1O[C@@H](Oc2ccc3c(=O)c(-c4ccc(O)cc4)coc3c2)[C@H](O)[C@@H](O)[C@@H]1O	%	57.2

Next:
Per the records, this compound ( O=c1c(-c2ccc(O)cc2)coc2cc(O)ccc12 ) has Decomposition efficiency of daidzin family in soymilk equal to 8.9

---

Listing of recorded Decomposition efficiency of daidzin family in roasted soy flour by entry.
- Test system: Crude diglycosidase
- Measurement description: Examination of temperature in the conversion into isoflavone aglycons by diglycosidase using soybean materials
- Format: biochemical, Penicillium multicolor IAM7153
- Parameters: concentration or dose not given beside the values
- Setup conditions: 65 °C; heat treatment of enzyme: yes; 6 h
Respond numerically; units are % and should not be typed.

Molecule	Tested system	Endpoint unit	Quantitative result
O=c1c(-c2ccc(O)cc2)coc2cc(O)ccc12 [daidzein]	Crude diglycosidase	%	4.2
O=c1c(-c2ccc(O)cc2)coc2cc(O[C@@H]3O[C@H](CO)[C@@H](O)[C@H](O)[C@H]3O)ccc12 [daidzin]	Crude diglycosidase	%	49.7

// next entry
GET /value?item= CC(=O)OC[C@H]1O[C@@H](Oc2ccc3c(=O)c(-c4ccc(O)cc4)coc3c2)[C@H](O)[C@@H](O)[C@@H]1O [acetyldaidzin, 6″-O-acetyldaidzin] &field=Decomposition efficiency of daidzin family in roasted soy flour returns 46.1

---

- Tested on: β-Xylosidase derived from pectinase G
- Measurement description: Reactivity toward various isoflavone glycosides (HPLC)
- Assay type: biochemical
- Set-up: unit not given here
- Setup conditions: Reaction time 0 h; 55 °C, pH 4.0
Measurement type: glucoside
Lab note: record just the number, no unit beside it.

Example compounds with recorded glucoside:
Smiles str	Tested system	Quantitative result
COc1cc2c(=O)c(-c3ccc(O)cc3)coc2cc1O[C@@H]1O[C@H](COC(C)=O)[C@@H](O)[C@H](O)[C@H]1O	β-Xylosidase derived from pectinase G	100
O=C(O)CC(=O)OC[C@H]1O[C@@H](Oc2ccc3c(=O)c(-c4ccc(O)cc4)coc3c2)[C@H](O)[C@@H](O)[C@@H]1O	β-Xylosidase derived from pectinase G	100
COc1cc2c(=O)c(-c3ccc(O)cc3)coc2cc1O[C@@H]1O[C@H](CO)[C@@H](O)[C@H](O)[C@H]1O	β-Xylosidase derived from pectinase G	100
CC(=O)OC[C@H]1O[C@@H](Oc2cc(O)c3c(=O)c(-c4ccc(O)cc4)coc3c2)[C@H](O)[C@@H](O)[C@@H]1O	β-Xylosidase derived from pectinase G	100

Known value: β-Xylosidase derived from pectinase G glucoside of the compound COc1cc2c(=O)c(-c3ccc(O)cc3)coc2cc1O[C@@H]1O[C@H](COC(=O)CC(=O)O)[C@@H](O)[C@H](O)[C@H]1O equals 100
